# System: Integrin alpha-4/beta-1 (Homo sapiens, UniProt P05556+P13612)
# Sequence (P05556 whole entry): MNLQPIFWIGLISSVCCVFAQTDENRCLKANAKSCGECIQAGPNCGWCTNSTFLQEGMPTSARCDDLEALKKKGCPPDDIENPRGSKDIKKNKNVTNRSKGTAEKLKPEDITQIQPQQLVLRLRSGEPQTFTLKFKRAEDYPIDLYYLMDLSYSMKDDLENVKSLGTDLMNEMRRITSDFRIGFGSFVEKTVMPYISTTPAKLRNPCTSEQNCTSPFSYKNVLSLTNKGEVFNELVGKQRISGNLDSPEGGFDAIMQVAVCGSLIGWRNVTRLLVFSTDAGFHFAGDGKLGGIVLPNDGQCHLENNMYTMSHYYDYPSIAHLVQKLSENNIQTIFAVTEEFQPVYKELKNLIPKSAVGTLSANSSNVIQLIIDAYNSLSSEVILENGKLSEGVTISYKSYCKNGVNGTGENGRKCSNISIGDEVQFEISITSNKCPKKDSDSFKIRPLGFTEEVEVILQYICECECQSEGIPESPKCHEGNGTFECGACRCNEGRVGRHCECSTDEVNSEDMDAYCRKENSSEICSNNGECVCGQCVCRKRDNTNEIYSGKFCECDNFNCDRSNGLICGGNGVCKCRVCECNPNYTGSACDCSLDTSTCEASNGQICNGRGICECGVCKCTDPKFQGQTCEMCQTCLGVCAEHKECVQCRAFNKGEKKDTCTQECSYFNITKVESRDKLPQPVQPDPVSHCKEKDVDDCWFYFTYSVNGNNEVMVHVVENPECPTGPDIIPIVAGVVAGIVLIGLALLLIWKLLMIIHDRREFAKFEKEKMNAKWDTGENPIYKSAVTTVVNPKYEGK
# Sequence (P13612 whole entry): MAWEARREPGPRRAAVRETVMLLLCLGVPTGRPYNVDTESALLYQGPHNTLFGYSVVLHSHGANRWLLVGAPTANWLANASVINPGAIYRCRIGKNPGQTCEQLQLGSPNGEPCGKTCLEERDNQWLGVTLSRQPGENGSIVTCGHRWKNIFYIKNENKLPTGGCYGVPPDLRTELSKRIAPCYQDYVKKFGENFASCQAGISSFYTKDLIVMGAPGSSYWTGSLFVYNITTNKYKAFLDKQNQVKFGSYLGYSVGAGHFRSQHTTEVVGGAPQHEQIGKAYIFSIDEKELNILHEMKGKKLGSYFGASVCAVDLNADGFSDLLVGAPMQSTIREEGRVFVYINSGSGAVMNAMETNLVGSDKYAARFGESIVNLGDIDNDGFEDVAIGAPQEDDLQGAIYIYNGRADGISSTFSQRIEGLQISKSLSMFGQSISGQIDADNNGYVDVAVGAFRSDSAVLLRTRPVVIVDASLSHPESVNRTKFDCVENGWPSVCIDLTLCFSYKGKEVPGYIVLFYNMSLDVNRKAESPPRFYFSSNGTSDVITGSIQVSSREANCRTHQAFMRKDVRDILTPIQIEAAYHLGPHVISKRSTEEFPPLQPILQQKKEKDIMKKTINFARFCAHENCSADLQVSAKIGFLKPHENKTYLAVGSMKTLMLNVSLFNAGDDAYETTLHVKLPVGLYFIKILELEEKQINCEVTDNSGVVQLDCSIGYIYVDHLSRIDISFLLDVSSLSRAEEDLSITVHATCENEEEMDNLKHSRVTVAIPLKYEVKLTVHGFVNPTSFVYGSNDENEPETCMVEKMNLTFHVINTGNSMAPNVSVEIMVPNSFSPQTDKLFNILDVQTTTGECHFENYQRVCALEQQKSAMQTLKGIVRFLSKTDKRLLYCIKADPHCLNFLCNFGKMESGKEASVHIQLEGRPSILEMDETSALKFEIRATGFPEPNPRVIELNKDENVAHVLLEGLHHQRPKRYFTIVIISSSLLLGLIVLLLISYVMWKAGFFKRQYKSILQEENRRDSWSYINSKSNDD
# Experimental Protocol: Inhibition of VLA-4 to VCAM-1 binding
# Assay type: protein-complex assay
pIC50: −log10 of the molar value.
Classification by pIC50 follows these ranges: low end: < 6; middle: ≥ 6 and < 7; high end: ≥ 7

Some solved cases for reference:
Exercise: Bin this entry: CC(=O)N1CSC[C@@H]1C(=O)N/C(=C/c1ccc(NC(=O)c2c(Cl)cccc2Cl)cc1)C(=O)O
Key: middle

Exercise: Bin this entry: CC(C)(C)C(=O)N/C(=C/c1ccc(NC(=O)c2c(Cl)cccc2Cl)cc1)C(=O)O
Key: low end

Exercise: Bin this entry: CC(=O)N1CSC[C@@H]1C(=O)N/C(=C\c1ccc(OCc2c(Cl)cccc2Cl)cc1)C(=O)O
Key: low end

Exercise: Bin this entry: CC(=O)N1CSC[C@H]1C(=O)N/C(=C\c1ccc(OCc2ccccc2)cc1)C(=O)O
Key: low end

Exercise: Bin this entry: CC(C)(C)C(=O)N/C(=C\c1ccc(NC(=O)c2c(Cl)cccc2Cl)cc1)C(=O)O
Key: high end

Now examine the next entry.
Exercise: Bin this entry: CC(=O)N1CSC[C@@H]1C(=O)N/C(=C\c1ccc(NC(=O)c2c(Cl)cccc2Cl)cc1)C(=O)O
Key: high end
